test system: S. aureus RN4220/pMS520; assay: MIC, agar plate dilution method, S. aureus RN4220/pMS520; type: cell-based, Staphylococcus aureus; conditions: Staphylococcus aureus, MRSA, read-out: minimal inhibitory concentration (MIC), S. aureus RN4220/pMS520, MRSA
propertyMeasured: MIC

- compound: "CNC1C(O[C@H]2OC(C)[C@@H](N)[C@H](O)C2O)O[C@H]2CC(N)[C@@H](O[C@H]3CC(O)[C@H](N)CC3N)OC2C1O (stereo partly drawn) [Compound L5, 5,6″-dideoxyapramycin]"
  propertyMeasured: "MIC"
  result: "1 µg/mL"
- compound: "CNC1C(O[C@H]2OC(CO)[C@@H](NC(=O)[C@@H](O)CN)[C@H](O)C2O)O[C@H]2C[C@H](N)[C@@H](O[C@@H]3C(N)C[C@@H](N)C[C@H]3O)OC2C1O (stereo partly drawn) [Compound V1-r, 6-deoxy-5-epi-4″-N-(L-isoseryl)apramycin]"
  propertyMeasured: "MIC"
  result: "1 µg/mL"
- compound: "CNC1C(O[C@H]2OC(CO)[C@@H](NC(=O)[C@@H](N)CO)[C@H](O)C2O)O[C@H]2CC(N)[C@@H](O[C@@H]3C(N)C[C@@H](N)C(O)[C@H]3O)OC2C1O (stereo partly drawn) [Compound V1-e, 4″-N-(L-seryl)apramycin]"
  propertyMeasured: "MIC"
  result: "8 µg/mL"
- compound: "CNC1C(O[C@H]2OC(CO)[C@@H](NC(=O)CN)[C@H](O)C2O)O[C@H]2C[C@H](N)[C@@H](O[C@@H]3C(N)C[C@@H](N)C[C@H]3O)OC2C1O (stereo partly drawn) [Compound V1-o, 6-deoxy-5-epi-4″-N-glycylapramycin]"
  propertyMeasured: "MIC"
  result: "1 µg/mL"
- compound: "CNC1C(O[C@H]2OC(CO)[C@@H](NC(=O)CN)[C@H](O)C2O)O[C@H]2CC(N)[C@@H](O[C@@H]3C(N)C[C@@H](N)C(O)[C@H]3O)OC2C1O (single isomer, unassigned) [Compound V1-i, 5-epi-4″-N-glycylapramycin]"
  propertyMeasured: "MIC"
  result: "2 µg/mL"
- compound: "CNC1C(O[C@H]2OC(C)[C@@H](NC(=N)N)[C@H](O)C2O)O[C@H]2CC(N)[C@@H](O[C@H]3CC(O)[C@H](N)CC3N)OC2C1O (stereo partly drawn) [Compound S1-q]"
  propertyMeasured: "MIC"
  result: "1 µg/mL"
- compound: "CNC1C(O[C@H]2OC(CO)[C@@H](NCCCN)[C@H](O)C2O)O[C@H]2CC(N)[C@@H](O[C@H]3CC(O)[C@H](N)CC3N)OC2C1O (stereo partly drawn) [Compound S1-c, 4″-N-(3-aminopropyl)-5-deoxyapramycin]"
  propertyMeasured: "MIC"
  result: "2 µg/mL"
- compound: "CNC1C(O[C@H]2OC(CO)[C@@H](NC(=O)[C@@H](C)N)[C@H](O)C2O)O[C@H]2CC(N)[C@@H](O[C@@H]3C(N)C[C@@H](N)C(O)[C@H]3O)OC2C1O (stereo partly drawn) [Compound V1-d, 4″-N-(D-alanyl)apramycin]"
  propertyMeasured: "MIC"
  result: "4 µg/mL"
- compound: "CNC1C(O[C@H]2OC(CO)[C@@H](NC(=O)CN)[C@H](O)C2O)O[C@H]2C[C@H](N)[C@@H](O[C@@H]3C(N)C[C@@H](N)C(O)[C@H]3N)OC2C1O (stereo partly drawn) [Compound W2-b]"
  propertyMeasured: "MIC"
  result: "2 µg/mL"
- compound: "CNC1C(O[C@H]2OC(CO)[C@@H](NC3CN(C)C3)[C@H](O)C2O)O[C@H]2CC(N)[C@@H](O[C@@H]3C(N)C[C@@H](N)C(O)[C@H]3O)OC2C1O (stereo partly drawn) [Compound A4-i, 4″-N-(1-methylazetidin-3-yl)apramycin]"
  propertyMeasured: "MIC"
  result: "4 µg/mL"
- compound: "CNC1C(O[C@H]2OC(CO)[C@@H](NC(=O)CCN)[C@H](O)C2O)O[C@H]2C[C@H](N)[C@@H](O[C@@H]3C(N)C[C@@H](N)C(O)[C@H]3O)OC2C1O (stereo partly drawn) [Compound V1-m, 4″-N-(β-alanyl)-5-epiapramycin]"
  propertyMeasured: "MIC"
  result: "2 µg/mL"
- compound: "CNC1C(O[C@H]2OC(CO)[C@@H](NCCCN)[C@H](O)C2O)O[C@H]2CC(N)[C@@H](O[C@@H]3C(N)C[C@@H](N)C[C@H]3O)OC2C1O (stereo partly drawn) [Compound S1-n]"
  propertyMeasured: "MIC"
  result: "2 µg/mL"
- compound: "CNC1C(O[C@H]2OC(CO)[C@@H](NC(CN)CN)[C@H](O)C2O)O[C@H]2CC(N)[C@@H](O[C@@H]3C(N)C[C@@H](N)C(O)[C@H]3O)OC2C1O (stereo partly drawn) [Compound A4-d, 4″-N-(1,3-diaminopropan-2-yl)apramycin]"
  propertyMeasured: "MIC"
  result: "2 µg/mL"
- compound: "CNC1C(O[C@H]2OC(CO)[C@@H](NC(=O)CCN)[C@H](O)C2O)O[C@H]2CC(N)[C@@H](O[C@@H]3C(N)C[C@@H](N)C(O)[C@H]3O)OC2C1O (stereo partly drawn) [Compound V1-g, 4″-N-(β-alanyl)apramycin]"
  propertyMeasured: "MIC"
  result: "2 µg/mL"
- compound: "CNC1C(O[C@H]2OC(CO)[C@@H](NCCN)[C@H](O)C2O)O[C@H]2CC(N)[C@@H](O[C@@H]3C(N)C[C@@H](N)C(O)[C@H]3O)OC2C1O (stereo partly drawn) [Compound S1-g, 4″-N-(2-aminoethyl)-5-epiapramycin]"
  propertyMeasured: "MIC"
  result: "2 µg/mL"
- compound: "CNC1C(O[C@H]2OC(CO)[C@@H](NC(=N)N)[C@H](O)C2O)O[C@H]2CC(N)[C@@H](O[C@H]3CC(O)[C@H](N)CC3N)OC2C1O (stereo partly drawn) [Compound S1-e, 4″-deamino-5-deoxy-4″-guanidinoapramycin]"
  propertyMeasured: "MIC"
  result: "1 µg/mL"
- compound: "CNC1C(O[C@H]2OC(CO)[C@@H](NC(=N)N)[C@H](O)C2O)O[C@H]2CC(N)[C@@H](O[C@@H]3C(N)C[C@@H](N)C[C@H]3O)OC2C1O (stereo partly drawn) [Compound S1-o]"
  propertyMeasured: "MIC"
  result: "1 µg/mL"
- compound: "CNC1C(O[C@H]2OC(CO)[C@@H](NC(=O)[C@@H](O)CN)[C@H](O)C2O)O[C@H]2CC(N)[C@@H](O[C@@H]3C(N)C[C@@H](N)C(O)[C@H]3O)OC2C1O (stereo partly drawn) [Compound V1-h, 4″-N-(L-isoseryl)apramycin]"
  propertyMeasured: "MIC"
  result: "4 µg/mL"
